- System under test: UniProt O08790
- Sequence (O08790 whole entry): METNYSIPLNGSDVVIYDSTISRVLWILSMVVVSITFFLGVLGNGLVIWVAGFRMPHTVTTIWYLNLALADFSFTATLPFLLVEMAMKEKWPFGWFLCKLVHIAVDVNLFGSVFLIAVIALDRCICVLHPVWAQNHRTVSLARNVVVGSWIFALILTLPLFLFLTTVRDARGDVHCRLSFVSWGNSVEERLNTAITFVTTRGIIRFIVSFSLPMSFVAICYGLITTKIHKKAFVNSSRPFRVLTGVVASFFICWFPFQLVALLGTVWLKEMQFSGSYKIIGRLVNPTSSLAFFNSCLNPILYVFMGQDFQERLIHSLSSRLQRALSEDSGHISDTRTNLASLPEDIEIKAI
- Method: Agonist activity at mouse FPR3 expressed in CHO-A12 cells assessed as cAMP level incubated for 1.5 hr by HTRF assay
pEC50: −log10 of the molar value.
Metric name: pEC50

Enquiry: Item `Cn1c(C(C)(C)C)c(NC(=O)Nc2ccc(Cl)cc2)c(=O)n1-c1ccccc1` has what recorded pEC50?
Return: < 6.00

====

- System under test: Formyl peptide receptor 2 (Mus musculus, UniProt O88536)
- Sequence (O88536 whole entry): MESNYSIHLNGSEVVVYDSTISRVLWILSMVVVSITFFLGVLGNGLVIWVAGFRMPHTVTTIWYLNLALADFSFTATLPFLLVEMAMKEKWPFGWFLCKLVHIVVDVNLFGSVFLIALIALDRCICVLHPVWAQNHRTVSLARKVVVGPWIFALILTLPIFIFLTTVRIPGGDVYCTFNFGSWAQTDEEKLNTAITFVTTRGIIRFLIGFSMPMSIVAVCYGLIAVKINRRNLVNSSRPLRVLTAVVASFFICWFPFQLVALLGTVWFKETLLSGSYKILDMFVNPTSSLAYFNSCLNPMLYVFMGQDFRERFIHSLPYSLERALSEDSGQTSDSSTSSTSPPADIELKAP
- Method: Agonist activity at mouse FPR2 expressed in CHO-A12 cells assessed as cAMP level incubated for 1.5 hr by HTRF assay
Metric name: EC50 (nM)
Numbers only here, please. The scale is nM.

Enquiry: Item `Cn1c(C(C)(C)C)c(NC(=O)Nc2ccc(Cl)cc2)c(=O)n1-c1ccccc1` has what recorded EC50?
Return: 50

====

- System under test: fMet-Leu-Phe receptor (Mus musculus, UniProt P33766)
- Sequence (P33766 whole entry): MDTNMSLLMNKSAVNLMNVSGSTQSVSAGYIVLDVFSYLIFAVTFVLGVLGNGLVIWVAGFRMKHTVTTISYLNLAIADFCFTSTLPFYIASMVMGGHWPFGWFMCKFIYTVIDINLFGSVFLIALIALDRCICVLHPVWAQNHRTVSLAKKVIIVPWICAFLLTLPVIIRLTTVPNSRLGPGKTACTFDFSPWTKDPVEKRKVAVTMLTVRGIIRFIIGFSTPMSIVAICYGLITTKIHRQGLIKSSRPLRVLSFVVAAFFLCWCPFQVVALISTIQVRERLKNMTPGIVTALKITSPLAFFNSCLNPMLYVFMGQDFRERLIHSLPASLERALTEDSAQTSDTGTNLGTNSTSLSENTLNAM
- Method: Agonist activity at mouse FPR1 expressed in CHO-A12 cells assessed as cAMP level incubated for 1.5 hr by HTRF assay
Metric name: EC50 (nM)
Numbers only here, please. The scale is nM.

Enquiry: Item `Cn1c(C(C)(C)C)c(NC(=O)Nc2ccc(Cl)cc2)c(=O)n1-c1ccccc1` has what recorded EC50?
Return: 20

====

- System under test: fMet-Leu-Phe receptor (Homo sapiens)
- Sequence (P21462 whole entry): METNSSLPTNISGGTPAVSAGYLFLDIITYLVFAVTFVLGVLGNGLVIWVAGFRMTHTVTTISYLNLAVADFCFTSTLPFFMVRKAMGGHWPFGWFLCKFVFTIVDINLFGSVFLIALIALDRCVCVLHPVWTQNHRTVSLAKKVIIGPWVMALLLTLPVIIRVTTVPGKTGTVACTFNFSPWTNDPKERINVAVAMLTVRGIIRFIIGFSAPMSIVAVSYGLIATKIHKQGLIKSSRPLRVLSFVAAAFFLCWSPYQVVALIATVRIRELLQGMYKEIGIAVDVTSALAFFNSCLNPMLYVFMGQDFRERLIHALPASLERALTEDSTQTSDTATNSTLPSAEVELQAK
- Method: Agonist activity at human FPR1 transfected in HL-60 cells assessed as increase in intracellular calcium flux incubated for 30 mins by Fluo-4 AM dye based fluorometer analysis
- Assay type: cell-based
- Condition info: hl-60; read-out: EC50
Metric name: pEC50
Interpret pEC50 as the negative base-10 log of the concentration measured in mol/L.

Enquiry: Item `COc1ccc(NC(=O)N[C@H](Cc2ccc(O)cc2)C(=O)NCC2(c3ccccc3)CC2)cc1` has what recorded pEC50?
Return: 5.29

====

- System under test: UniProtKB P21462
- Sequence (P21462 whole entry): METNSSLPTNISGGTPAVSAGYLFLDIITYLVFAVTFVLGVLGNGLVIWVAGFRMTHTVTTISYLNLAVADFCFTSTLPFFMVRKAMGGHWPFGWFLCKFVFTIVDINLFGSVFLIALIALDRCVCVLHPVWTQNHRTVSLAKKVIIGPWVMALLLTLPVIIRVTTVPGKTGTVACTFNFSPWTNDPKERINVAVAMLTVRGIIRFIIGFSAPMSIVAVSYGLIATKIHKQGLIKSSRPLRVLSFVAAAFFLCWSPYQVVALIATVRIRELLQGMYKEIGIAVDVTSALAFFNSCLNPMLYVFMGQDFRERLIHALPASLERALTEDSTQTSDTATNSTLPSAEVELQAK
- Method: Agonist activity at human FPR1 transfected in HL-60 cells assessed as increase in intracellular calcium flux incubated for 30 mins by Fluo-4 AM dye based fluorometer analysis
- Assay type: cell-based
- Condition info: read-out: EC50
The following compounds are listed with their measured pEC50 values.
Interpret pEC50 as the negative base-10 log of the concentration measured in mol/L.

# count of solved cases: 2
1. COc1cccc(-c2cc(C#N)c(C)n(CC(=O)Nc3ccc(Br)cc3)c2=O)c1 :: 5.80
2. COc1ccc(NC(=O)N[C@@H](Cc2ccc(O)cc2)C(=O)NCC2(c3ccccc3)CC2)cc1 :: 5.82

Enquiry: Item `COc1ccc(NC(=O)N[C@@H](Cc2ccc(C#N)cc2)C(=O)NCC2(c3ccc(O)cc3)CC2)cc1` has what recorded pEC50?
Return: 5.89

Enquiry: Same again, this time with `COc1ccc(NC(=O)N[C@@H](Cc2ccc(C#N)cc2)C(=O)NCC2(c3cccc(O)c3)CC2)cc1`
Return: 5.85

Enquiry: Same again, this time with `O=C(Cn1c(=O)[nH]cc(-c2ccccc2)c1=O)Nc1ccc(Br)cc1`
Return: 4.90

====

The following molecules are listed with their measured Ratio EC50 values.
- Species on record: Homo sapiens
- Method: Selectivity index, ratio of EC50 for agonist activity at FPR2 (unknown origin) expressed in CHO/Galpha16 cells to EC50 for FPR1 (unknown origin) expressed in CHO/Galpha16 cells
- Assay type: cell-based
I only need the number, thanks.

# count of solved cases: 5
1) CCC[C@H](NC(=O)CNC(=O)Nc1ccc(Br)cc1)C(=O)O :: 62
2) CC(C)C[C@H](NC(=O)CCNC(=O)Nc1ccc(Br)cc1)C(=O)O :: 74
3) CC(C)C(C(=O)O)C(C)NC(=O)Nc1ccc(Br)cc1 (stereo in doubt; 20) :: 101
4) CC(C)C[C@H](NC(=O)CNC(=O)Nc1ccc(Br)cc1)C(=O)O :: 386
5) CC(C)C(C(=O)O)C(C)NC(=O)Nc1ccc(Br)cc1 (stereo in doubt; 18) :: 17

Enquiry: Item `O=C(CNC(=O)Nc1ccc(Br)cc1)N[C@@H](Cc1ccccc1)C(=O)O` has what recorded Ratio EC50?
Return: 24

Enquiry: Same again, this time with CC(C)C(C(=O)O)C(C)NC(=O)Nc1ccc(Br)cc1 (stereo in doubt; 19)
Return: 249

====

- System under test: N-formyl peptide receptor 2 (Homo sapiens, UniProt P25090)
- Sequence (P25090 whole entry): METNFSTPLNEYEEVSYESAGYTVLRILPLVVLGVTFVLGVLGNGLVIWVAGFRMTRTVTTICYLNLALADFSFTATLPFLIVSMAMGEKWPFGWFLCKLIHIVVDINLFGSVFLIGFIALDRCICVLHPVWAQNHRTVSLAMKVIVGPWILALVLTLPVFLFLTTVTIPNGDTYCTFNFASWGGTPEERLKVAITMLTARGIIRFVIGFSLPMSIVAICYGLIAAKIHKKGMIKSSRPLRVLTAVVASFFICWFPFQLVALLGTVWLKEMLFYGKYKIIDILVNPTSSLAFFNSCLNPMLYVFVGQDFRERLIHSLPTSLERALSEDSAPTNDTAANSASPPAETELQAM
- Method: Agonist activity at human FPR2 transfected in HL-60 cells assessed as increase in intracellular calcium flux incubated for 30 mins by Fluo-4 AM dye based fluorometer analysis
- Assay type: cell-based
- Condition info: read-out: EC50
The following compounds are listed with their measured pEC50 values.
Interpret pEC50 as the negative base-10 log of the concentration measured in mol/L.

# count of solved cases: 2
1. COc1ccc(NC(=O)N[C@H](Cc2ccc(C#N)cc2)C(=O)NCC2(c3ccc(O)cc3)CC2)cc1 :: 5.15
2. COc1ccc(NC(=O)N[C@@H](Cc2ccc(O)cc2)C(=O)NCC2(c3ccccc3)CC2)cc1 :: 5.54

Enquiry: Item `COc1ccc(NC(=O)N[C@H](Cc2ccc(C#N)cc2)C(=O)NCC2(c3cccc(O)c3)CC2)cc1` has what recorded pEC50?
Return: 5.15

Enquiry: Same again, this time with `COc1ccc(NC(=O)N[C@@H](Cc2ccc(C#N)cc2)C(=O)NCC2(c3ccc(O)cc3)CC2)cc1`
Return: 5.80

Enquiry: Same again, this time with `O=C(Cn1c(=O)[nH]cc(-c2ccccc2)c1=O)Nc1ccc(Br)cc1`
Return: 5.05

Enquiry: Same again, this time with `COc1cccc(-c2cc(C#N)c(C)n(CC(=O)Nc3ccc(Br)cc3)c2=O)c1`
Return: 6.92

Enquiry: Same again, this time with `COc1ccc(NC(=O)N[C@@H](Cc2ccc(C#N)cc2)C(=O)NCC2(c3cccc(O)c3)CC2)cc1`
Return: 6.74

====

- Tested on: Mus musculus
- Method: Anti-inflammatory activity against BALB/c mouse assessed as suppression ratio of LPS-induced neutrophil infiltration in lung at 3 mg/kg,po measured after 5.5 hrs by Diff-Quick staining based microscopic analysis
- Format: functional
Metric name: Ratio

# count of solved cases: 3
1) COc1cc(F)c([C@@H]2CNC(=O)[C@H]2NC(=O)Nc2ccc(C)cc2)c(F)c1 :: 57%
2) COc1ccc(C[C@H](NC(=O)Nc2ccc(Cl)cc2)c2noc(CCO)n2)cc1 :: 94%
3) CCN1C[C@@H](c2ccc(OC)cc2)[C@H](NC(=O)Nc2ccc(F)cc2)C1=O :: 97.4%

Enquiry: Form field - read-out: Ratio; system: Mus musculus; submitted item: `N/C(=N\C(=O)CCO)[C@H](Cc1ccc(Cl)cc1)NC(=O)Nc1ccc(Cl)cc1`
Return: 86%

====

- System under test: N-formyl peptide receptor 2 (Homo sapiens, UniProt P25090)
- Method: Agonist activity at FPR2 (unknown origin) assessed as increase in calcium flux
Metric name: EC50 (pM)
Numbers only here, please. The scale is pM.

Enquiry: Item `COc1cc(F)c([C@@H]2CN3CCON=C3[C@H]2NC(=O)Nc2ccc(F)cc2)c(F)c1` has what recorded EC50?
Return: 20

====

- System under test: fMet-Leu-Phe receptor (Homo sapiens)
- Method: Agonist activity at human recombinant FPR1 stably transfected in Flp-In-CHO cells assessed as increase in intracellular calcium mobilization incubated for 1 hr by Fluo-4 AM dye based fluorescence plate reader assay
- Format: cell-based
The following compounds are listed with their measured EC50 values.

# count of solved cases: 2
1) COc1cccc(Cc2cc(C)nn([C@H](C)C(=O)Nc3ccc(Cl)cc3)c2=O)c1 :: 3.98 µM
2) COc1cccc(Cc2cc(C)nn(C(C)C(=O)Nc3ccc(Cl)cc3)c2=O)c1 (racemic) :: 7.94 µM

Now consider the entry below.
Enquiry: Item `COc1cccc(Cc2cc(C)nn([C@@H](C)C(=O)Nc3ccc(Cl)cc3)c2=O)c1` has what recorded EC50?
Return: > 10 µM

Data origin: ChEMBL document CHEMBL5233265
